Task for the reader: assign each of the following binders its reported pKd.
Biological target: T1, soluble human ASGR-1 carbohydrate binding domain (CBD; amino acid residues 154-281; N-terminal 6xHis tag) (human, UniProt P07306 154-281)
T1 construct: also called ASGR-1 CBD
T1 sequence: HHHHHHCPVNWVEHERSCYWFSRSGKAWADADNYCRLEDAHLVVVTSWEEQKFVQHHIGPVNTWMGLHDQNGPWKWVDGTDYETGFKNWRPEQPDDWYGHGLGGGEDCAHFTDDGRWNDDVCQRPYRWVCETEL
Experiment: Octet BLI, mAb on AR2G tips, 1:1 fit
Lab note: report pKd as minus log10 of the concentration in molar units, number only.

pKd recorded for this binder, 48B12 (antibody, V domains shown, mAb) VH: EVQLLESGGGLVQPGGSLRLSCAASGFTFSSYAMNWVRQAPGKGLEWVSAISGRGGNTFYADSVKGRFTISRDNSKNTLYLQMNSLRAEDTAVYYCAKRETYNWNYEGFDYWGQGTLVTVSS VL: SYELTQPPSVSVSPGQTARITCSGDALPKKYAYWYQQKSGQAPVLVIYEDSKRPSGIPERFSGSSSGTMATLTISGAQVEDEADYYCNSTDSSGNHVVFGGGTKLTVL , is 9.52

In plain terms, 218G4 (antibody, V domains shown, mAb) VH: QVQLVESGGGVVQPGRSLRLSCAASGFTFSSYGLHWVRQAPGKGLEWVAVIWYDGSNKYYADSVKGRFTISRDNSKNTLYLQMNSLRVEDTAVYYCANWYYYYYGMDVWGQGTTVTVSS VL: QSVLTQPPSVSAAPGQKVTISCSGSSSNIGNNYVSWYQQLPGTAPKLLLYDSNKRPSGIPARFSGSKSGTSATLGITGLQTGDEADYYCGTWDSSLNTVVFGGGTKLTVL has a documented pKd of 8.59

binder 191G10 (antibody, V domains shown, mAb) VH: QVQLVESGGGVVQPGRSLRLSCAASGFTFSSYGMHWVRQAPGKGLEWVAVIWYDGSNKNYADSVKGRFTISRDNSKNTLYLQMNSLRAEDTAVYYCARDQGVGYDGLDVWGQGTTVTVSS VL: DIQMTQSPSSLSASVGDRVTITCRTSQGIGKYLAWFQQKPGKAPKSLLYKVSSLQSGVPSKFSGSGSGTDFTLTISSLQPEDFATYYCQQYMTYPLTFGGGTKVEIK , pKd observed: 9.30

The binder listed as 7G4 (antibody, V domains shown, mAb) VH: QVQLVESGGGVVQPGRSLRLSCAASGFTFNNYVMHWVRQAPGKGLEWVAVIWYDGSNKYYADSVKGRFTISRDNSKNTLYLQMTSLRAEDTAVYYCAREKYSSNWYDYGMDVWGQGTTVTVSS VL: DIQMTQSPSSLSASVGDRVTITCRASQGIRNDLGWYQQRPGKAPKRLIYAASSLQSGVPSRFSGSGSGTEFTLTISSLQPEDSATYYCLHQYSYPRTFGQGTKVEIK shows pKd equal to 9.05

// pKd lookup, binder = 4H6 (antibody, V domains shown, mAb) VH: QVQLVQSGAEVKKPGASVKVSCKASGYTFTDYYLHWVRQAPGQGLEWMGWIHPNSGGTNYAQKFQGRVTMTRDTSISTAYMGLSSLRSDDTAVYYCARDGTSSFDYWGQGTLVTVSS VL: DIQMTQSPSSVSASVGDRVTITCRASQGISRWLAWYQQKPGKAPKLLIYGASSLQSGVPSRFSGSGSGTDFTLTISSLQPEDFAIYYCQQANSFPFTFGPGTKVDIK , result: 8.32

response.value for 184E7 (antibody, V domains shown, mAb) VH: QVQLVQSGAEVKTPGASVKVSCRASGYTFTSYNMHWVRQVPGQGLEWMGWINPNNGGSNYTQKFQGRVTMTRDTSISTAYMELSRLRSDDTAVYYCARKFGDWGQGTLVTVSS VL: DIQMTQSPSSRSASIGERVTITCRASQGISNYLAWIQQKPGTAPKSLIYAASSLQSGVSSRFSGSGFGTDFTITISSVQREDFATYYCQQYNGYPFTFGHGTKVDIK (field: pKd) = 9.52

Form: binder = 4A2 (antibody, V domains shown, mAb) VH: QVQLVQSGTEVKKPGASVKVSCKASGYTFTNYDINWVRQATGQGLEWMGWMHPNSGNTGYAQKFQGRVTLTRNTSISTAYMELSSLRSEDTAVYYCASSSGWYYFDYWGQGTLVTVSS VL: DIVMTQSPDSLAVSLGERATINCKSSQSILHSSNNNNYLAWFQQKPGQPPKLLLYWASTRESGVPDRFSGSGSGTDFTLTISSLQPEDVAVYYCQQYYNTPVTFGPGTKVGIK ; pKd = 10.22

The binder identified as 193E7 (antibody, V domains shown, mAb) VH: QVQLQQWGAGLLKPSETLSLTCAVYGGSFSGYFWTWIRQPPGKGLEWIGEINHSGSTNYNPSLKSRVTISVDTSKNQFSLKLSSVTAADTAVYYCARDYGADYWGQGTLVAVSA VL: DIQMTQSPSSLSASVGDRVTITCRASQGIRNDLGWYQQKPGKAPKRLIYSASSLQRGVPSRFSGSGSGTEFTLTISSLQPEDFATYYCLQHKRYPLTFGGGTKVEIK registered its pKd at 8.46

Consider 25A4 (antibody, V domains shown, mAb) VH: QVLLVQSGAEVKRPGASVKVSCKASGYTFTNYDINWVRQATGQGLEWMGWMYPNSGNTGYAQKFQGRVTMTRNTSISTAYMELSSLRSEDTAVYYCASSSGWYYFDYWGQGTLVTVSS VL: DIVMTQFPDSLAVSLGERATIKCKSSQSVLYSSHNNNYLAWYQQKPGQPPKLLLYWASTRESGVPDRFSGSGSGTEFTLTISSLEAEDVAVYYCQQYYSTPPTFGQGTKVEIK . Its measured pKd is 10.52

Lab note: measured pKd of 7E11 (antibody, V domains shown, mAb) VH: QVQLVESGGGVVQPGRSLRLSCAASGFTFSSFGMHWVRQAPGKGLEWVAIIWHDGSNKYYADSVKGRFTISRDNSNNTLYLQMSSLRAEDTAVYYCARDLSMGGMDVWGQGTTVTVSS VL: DIQMTQSPSSLSASVGDRVTIACRASQNIISYLNWYQQKPGKAPKFLIYTASSLQSGVPSRFSGSGSGTDFTLTISSLQPEDFAIYYCQQTYSTPLTFGGGTKVEIK was 8.80

Hey, just so you know, these numbers are from patent US20190248902A1.
